Origin of the recorded values: PubChem BioAssay (EPA / NIEHS)

# Assay Comment: ATG_PPRE_CIS: Attagene CIS-FACTORIAL HepG2 Assay for human Peroxisome Proliferator-activated Response Element (PPRE) (AID 2282958)
# Condition Summary: HepG2 PPRE cis-element reporter, Attagene transcription factor profiling; actives raise or lower the signal
# Method: ATG_CIS is a cell-based, multiplexed-readout assay that uses HepG2, a human liver cell line, with measurements taken at 24 hours after chemical dosing in a 24-well plate.ATG_PPRE_CIS is one of 52 assay component(s) measured or calculated from the ATG_CIS assay. […] This assay endpoint, ATG_PPRE_CIS, was analyzed with bidirectional fitting relative to DMSO as the negative control and baseline of activity. […]
Activity calls are given as the source filed them. How the source made its calls: active means hit-call score of the fitted dose curve at least 0.9, where 1 is the maximum; inactive means score below 0.9.
Use one of these outcomes when replying: active, inactive

Record excerpt, results attached:
> print(dat)
                                   molecule  category
1        COP(=O)(OC)SCn1c(=O)oc2cc(Cl)cnc21  inactive
2  FC(F)C(F)(F)OCC(Cn1cncn1)c1ccc(Cl)cc1Cl (stereo not given)    active
3  COP(=O)(OC)C(O)C(Cl)(Cl)Cl (stereo not given)    active
4  CC(C)[C@H](C(=O)O[C@H](C#N)c1cccc(Oc2ccccc2)c1)c1ccc(Cl)cc1  inactive
5  CCOP(=S)(Oc1cnc(C(C)(C)C)nc1)OC(C)C (stereo not given)  inactive

[Q] Hi team, can someone confirm the assay call for COP(=O)(OC)OC(Br)C(Cl)(Cl)Br (stereo not given) ?
[A] inactive

[Q] Hi team, can someone confirm the assay call for CC(=NC#N)N(C)Cc1ccc(Cl)nc1 ?
[A] inactive

[Q] Hi team, can someone confirm the assay call for CCCCOC(=O)[C@@H](C)Oc1ccc(Oc2ccc(C#N)cc2F)cc1 ?
[A] inactive

[Q] Hi team, can someone confirm the assay call for CNc1cnn(-c2cccc(C(F)(F)F)c2)c(=O)c1Cl ?
[A] inactive

[Q] Hi team, can someone confirm the assay call for CNC(=O)ON=C(SC)C(=O)N(C)C ?
[A] inactive

[Q] Hi team, can someone confirm the assay call for CCc1cccc(CC)c1N(COC)C(=O)CCl ?
[A] inactive

[Q] Hi team, can someone confirm the assay call for CCC(CC)Nc1c([N+](=O)[O-])cc(C)c(C)c1[N+](=O)[O-] ?
[A] inactive

[Q] Hi team, can someone confirm the assay call for C[Si](Cn1cncn1)(c1ccc(F)cc1)c1ccc(F)cc1 ?
[A] active

* * *

# Read-out: Vascular cell adhesion molecule 1 (VCAM1), VCAM1 (gene 7412)
# Assay Comment: BSK_CASM3C_VCAM1: BioMAP Diversity Plus: CASM3C Assay for Vascular cell adhesion molecule 1 (VCAM1) Biomarker Activity (AID 2283055);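 further: VCAM-1 protein level quantified by ELISA on the cells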
# Condition Summary: primary human coronary artery smooth muscle cells; actives raise or lower the signal
Calls of active or inactive are those of the source. The calls were made as follows: active = hit-call score of the fitted dose curve at least 0.9, where 1 is the maximum; inactive = score below 0.9.
Use one of these outcomes when replying: active, inactive

Record excerpt, results attached:
> print(dat)
                                   compound  category
1  CC(C)=CC1C(C(=O)OCN2C(=O)C3=C(CCCC3)C2=O)C1(C)C (stereo not drawn)    active
2  CCOC(=O)CC(SP(=O)(OC)OC)C(=O)OCC (stereo not drawn)  inactive
3                          CNC(=O)ON=C(C)SC  inactive
4     CN1COCN(Cc2cnc(Cl)s2)C1=N[N+](=O)[O-]  inactive
5  Cc1nn(-c2cc(NS(C)(=O)=O)c(Cl)cc2Cl)c(=O)n1C(F)F  inactive
6               CNC(=O)Oc1cccc2c1OC(C)(C)O2  inactive

[Q] Hi team, can someone confirm the assay call for CC(=NC#N)N(C)Cc1ccc(Cl)nc1 ?
[A] inactive

[Q] Hi team, can someone confirm the assay call for CCOP(=O)(OCC)Oc1cc(C)nc(C(C)C)n1 ?
[A] inactive

[Q] Hi team, can someone confirm the assay call for CCNc1nc(Cl)nc(NC(C)(C)C#N)n1 ?
[A] inactive

[Q] Hi team, can someone confirm the assay call for CCCCOC(=O)c1ccccc1C(=O)O ?
[A] inactive

[Q] Hi team, can someone confirm the assay call for Nc1c(Cl)cc([N+](=O)[O-])cc1Cl ?
[A] inactive

[Q] Hi team, can someone confirm the assay call for COP(=O)(OC)OC(Br)C(Cl)(Cl)Br (stereo not drawn) ?
[A] active

* * *

# Assay Comment: BSK_SAg_SRB: Viability Assessment in the BioMAP Diversity Plus: SAg Assay (AID 2283096);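 further: cells read one day after compound addition; hits may be either gain or loss of signal compared with DMSO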
# Condition Summary: primary human HUVEC with PBMC
# Procedure: BSK_SAg is a cell-based, multiplexed-readout assay that uses umbilical vein endothelium and peripheral blood mononuclear cells, a human vascular primary cell co-culture, with measurements taken at 24 hours after chemical dosing in a 96-well plate.BSK_SAg_SRB is an assay component measured in the BSK_SAg assay. […] This assay endpoint, BSK_SAg_SRB, was analyzed with bidirectional fitting relative to DMSO as the negative control and baseline of activity. […]
The source made the active and inactive calls. The calls were made as follows: active = hit-call score of the fitted dose curve at least 0.9, where 1 is the maximum; inactive = score below 0.9.
Use one of these outcomes when replying: 1.0 = active, 0.0 = inactive

> print(dat)
                                   molecule  category
1  C#CCC1=C(C)C(OC(=O)C2C(C=C(C)C)C2(C)C)CC1=O (configuration not stated)       1.0
2                  CCCCOC(=O)c1ccccc1C(=O)O       0.0

[Q] Hi team, can someone confirm the assay call for CCc1cccc(C)c1N(C(=O)CCl)C(C)COC (configuration not stated) ?
[A] 0.0

[Q] Hi team, can someone confirm the assay call for CCCOc1nn(C(=O)NS(=O)(=O)c2ccccc2C(=O)OC)c(=O)n1C ?
[A] 0.0

[Q] Hi team, can someone confirm the assay call for CNC(=O)ON=C(C)SC ?
[A] 0.0

[Q] Hi team, can someone confirm the assay call for COP(=O)(OC)SCn1c(=O)oc2cc(Cl)cnc21 ?
[A] 1.0

[Q] Hi team, can someone confirm the assay call for CNC(=O)Oc1cccc2c1OC(C)(C)O2 ?
[A] 0.0

[Q] Hi team, can someone confirm the assay call for CCCCOC(=O)[C@@H](C)Oc1ccc(Oc2ccc(C#N)cc2F)cc1 ?
[A] 0.0

[Q] Hi team, can someone confirm the assay call for CCOC(=O)COc1cc(-c2nn(C)c(OC(F)F)c2Cl)c(F)cc1Cl ?
[A] 0.0

[Q] Hi team, can someone confirm the assay call for CON=C(C(=O)OC)c1ccccc1CON=C(C)c1cccc(C(F)(F)F)c1 ?
[A] 1.0

[Q] Hi team, can someone confirm the assay call for C[N+]1(C)CCCCC1 ?
[A] 0.0

[Q] Hi team, can someone confirm the assay call for CC(C1CC1)C(O)(Cn1cncn1)c1ccc(Cl)cc1 (configuration not stated) ?
[A] 0.0

* * *

# Target Or Test System: human CYP2B6, CYP2B6 (gene 1555)
# Assay Comment: NVS_ADME_hCYP2B6: NovaScreen (NVS) CYP450-related Enzyme Activity (ADME) Assay for human CYP2B6 (AID 2283101)
Results filed as inconclusive are left out. Calls of active or inactive are those of the source. The calls were made as follows: active = hit-call score of the fitted dose curve at least 0.9, where 1 is the maximum; inconclusive = response in the unintended direction; inactive = score below 0.9.
Parameter Measured: AC50

Example cases with answers are listed next.
Compound	Parameter Measured	Result
Nc1c(Cl)cc([N+](=O)[O-])cc1Cl	AC50	3480 nM (active)
CCCOCC(=Nc1ccc(Cl)cc1C(F)(F)F)n1ccnc1	AC50	1580 nM (active)
CC[C@H](C)[C@H]1O[C@]2(C=C[C@@H]1C)C[C@@H]1C[C@@H](C/C=C(\C)[C@@H](O[C@H]3C[C@H](OC)[C@@H](O[C@H]4C[C@H](OC)[C@@H](NC)[C@H](C)O4)[C@H](C)O3)[C@@H](C)/C=C/C=C3\CO[C@@H]4[C@H](O)C(C)=C[C@@H](C(=O)O1)[C@]34O)O2	AC50	8420 nM (active)

[Q] Query: AC50; subject: CCOC(=O)CC(SP(=O)(OC)OC)C(=O)OCC (centres undefined)
[A] 2490 nM (active)

* * *

# Assay Comment: APR_HepG2_MitoMembPot_72hr: Apredica 72-hour HepG2 Assay for Mitochondrial Membrane Potential (AID 2282917)
# Condition Summary: imaging, actives raise or lower the signal
The source made the active and inactive calls. Rule for the calls: active = hit-call score of the fitted dose curve at least 0.9, where 1 is the maximum; inactive = score below 0.9.
Parameter Measured: AC50

Example cases with answers are listed next.
Compound	AC50
CSc1nnc(C(C)(C)C)c(=O)n1N	inactive
CCCCN(CC)c1c([N+](=O)[O-])cc(C(F)(F)F)cc1[N+](=O)[O-]	inactive
CCCCOC(=O)[C@@H](C)Oc1ccc(Oc2ccc(C#N)cc2F)cc1	inactive
CCNc1nc(Cl)nc(NC(C)(C)C#N)n1	inactive
CC(C)N(C(=O)SCC(Cl)=C(Cl)Cl)C(C)C	inactive
CN(C)C(=O)Nc1cccc(C(F)(F)F)c1	inactive

Go through the items and report each one's AC50.
1. COP(=O)(NC(C)=O)SC (stereo not drawn)
2. CCCCSP(=O)(SCCCC)SCCCC
3. CC(C)=CC1C(C(=O)OCN2C(=O)C3=C(CCCC3)C2=O)C1(C)C (stereo not drawn)
4. CN(C)NC(=O)CCC(=O)O
5. CC[C@H](C)[C@H]1O[C@]2(C=C[C@@H]1C)C[C@@H]1C[C@@H](C/C=C(\C)[C@@H](O[C@H]3C[C@H](OC)[C@@H](O[C@H]4C[C@H](OC)[C@@H](NC)[C@H](C)O4)[C@H](C)O3)[C@@H](C)/C=C/C=C3\CO[C@@H]4[C@H](O)C(C)=C[C@@H](C(=O)O1)[C@]34O)O2
6. CCc1cccc(C)c1N(C(=O)CCl)C(C)COC (stereo not drawn)
7. CCC(=NOC/C=C/Cl)C1=C(O)CC(C2CCOCC2)CC1=O (stereo not drawn)

[A]
inactive
157 µM (active)
inactive
inactive
0.16 µM (active)
inactive
inactive

Go through the items and report each one's AC50.
1. CCOP(=O)(NC(C)C)Oc1ccc(SC)c(C)c1 (stereo not drawn)
2. Nc1nc(N)nc(NC2CC2)n1
3. C=C(C)[C@H]1Cc2c(ccc3c2O[C@@H]2COc4cc(OC)c(OC)cc4[C@@H]2C3=O)O1

[A]
50.5 µM (active)
inactive
15.7 µM (active)
